Tested on: HCT-15
Assay readout: GI50 (µM)
Please give a number only; it is taken to be in µM.

// COc1ccc(/C=N/N=C(\N)NO)c(OC)c1OC : GI50 value = 35.2

Input O=S(=O)(Cc1nc2ccccc2s1)c1nc2ccccc2s1 . Output GI50: 16.3

Lab note: Cn1cc(S(=O)(=O)NC(=O)Nc2ccc(Cl)cc2)c2ccccc21 gave GI50 of 4.5

Just so you know, measured GI50 for COc1ccc2ccccc2c1/C=C/C(=O)c1ccccc1 came out at 2.9

====

System: U-251
Assay: NCI tumour cell line growth inhibition, 48 h
Calls of active or inactive are those of the source. Cut-off read from the data, not from the text of the source: active = GI50 up to about 1.1 µM and inactive = higher.
Assay readout: GI50

In the examples that follow, each entry is paired with its recorded GI50.
CC(C)(C)N/N=C(/Cc1nc2c3c(ccc2nc1O)C(=O)c1ccccc1C3=O)C(=O)NC1=C(Cl)C(=O)c2ccccc2C1=O	47.8 µM (inactive)
Cc1ccc(S(=O)(=O)N2CCCN(S(=O)(=O)c3ccc(C)cc3)CC2)cc1	> 100 µM (inactive)
Cc1cc(NN)nc2[nH]nc(N)c12	> 100 µM (inactive)
Cc1nc2cc(/N=N/c3c(O)ccc4ccccc34)ccc2[nH]1	27.3 µM (inactive)
Cc1ccc2c(O)cc(-c3ccc(Cl)cc3)nc2n1	5.47 µM (inactive)
CSC(=S)Nc1cc(C)ccn1	67.8 µM (inactive)
O=C1/C(=C/c2ccco2)NC(=S)N1CN1CCCCC1	> 100 µM (inactive)
C=C1CC(C)(COc2ccc3ccc(=O)oc3c2)OC1=O (stereo unspecified)	13 µM (inactive)
O=[N+]([O-])c1ccc(-c2cn(-c3ccc(Cl)cc3)cn2)cc1	31.8 µM (inactive)
COC(=O)[C@H]1C[C@H]1NC(=O)C(CC(=O)OCc1ccccc1)NC(=O)OCc1ccccc1 (stereo partly specified)	81.5 µM (inactive)

Now for a further compound.
For O=C1OC[C@@H]2Cc3c([nH]c4ccccc34)[C@@H](c3cc(O)c(O)c(O)c3)N12 the compound record lists GI50 as 25.3 µM (inactive)

====

# GI50 per record follows
System: OVCAR-5
Assay: NCI tumour cell line growth inhibition, 48 h
The source made the active and inactive calls. Rule as the data show it: active = GI50 up to about 1.1 µM and inactive = higher.

Worked cases, answers included:
O=C(O)c1ccc(Nc2nc3nn(Cc4ccccc4)cc3c(=O)s2)cc1	> 100 µM (inactive)
CCOP(C)(=O)/C(Cc1ccc(OC)c(OC)c1)=N\O (stereo not given)	> 100 µM (inactive)
O=C1C=CN(C2OC(CO)C(O)C2O)C(=O)C1 (stereo not given)	1350 µM (inactive)
O=C(O)CSc1nnc(CCCCCCCCc2nnc(SCC(=O)O)o2)o1	> 100 µM (inactive)
COc1c(C(=O)/C(=N/Nc2cccc(Cl)c2)C(C)=O)c(O)c(OC)c2occc12	> 100 µM (inactive)

Documented GI50 of CC(=O)O[C@H]1[C@@H](OC2CCCC2(c2ccccc2)c2ccccc2)O[N+]([O-])=C[C@@H]1c1ccccc1 (stereo not given in full) : 17.6 µM (inactive)

Per the records, this compound ( Cc1nc2[nH]ncn2c(=O)c1CCCl ) has GI50 equal to > 10 µM (inactive)

GI50 recorded for this compound, Cc1ccc(C2(C)CC/C(=N/N=C3/CCC(C)(c4ccc(C)c(C)c4)c4cc(C)c(C)cc43)c3cc(C)c(C)cc32)cc1C (stereo not given) , is > 100 µM (inactive)

Reported GI50 of Cc1cc(C)c2c(c1)CC1(Cc3ccc(C)c(C)c3C1=O)C2=O (stereo not given) : > 100 µM (inactive)

// recorded GI50 for OCc1cc2c([nH]c3ccccc32)c(C(O)CO)n1 (stereo not given) : > 100 µM (inactive)

====

System: UO-31
Assay: NCI tumour cell line growth inhibition, 48 h
The source made the active and inactive calls. Cut-off read from the data, not from the text of the source: active = GI50 up to about 1.1 µM and inactive = higher.
Recorded measurements of GI50, one per entry

CCSC1=N/C(=C/c2ccccc2O)C(=O)N1	38.5 µM (inactive)
CC(C)=CCC/C(C)=C/Cc1c2c(c3oc(-c4ccc(O)c(O)c4)c(O)c(=O)c3c1O)C=CC(C)(C)O2	3.44 µM (inactive)
C=C(CN(C)C)C(=O)c1ccccc1OC	16.4 µM (inactive)
CC(=O)O[C@]12CCCCCC1C1(O)C(O)CCCCC12 (stereo partly specified)	> 100 µM (inactive)
Cc1nc2[nH]ncn2c(=O)c1CCCl	> 10 µM (inactive)

Consider the additional compound presented here.
// GI50 value for N#Cc1c(-c2ccc(Cl)cc2)cc(-c2nc3ccccc3[nH]2)nc1N : 9.1 µM (inactive)

====

Tested on: UO-31
Assay: NCI tumour cell line growth inhibition, 48 h
The source made the active and inactive calls. Cut-off read from the data, not from the text of the source: active = GI50 up to about 1.1 µM and inactive = higher.
Result category, one only: active, inactive

The following molecules have reported results that may help.
CCOC(=O)C1C(=O)C=C(c2cc(C)ccc2O)CC1c1cccc(Cl)c1 (stereo not given)	inactive
O=C1CC(Sc2nc3ccc(I)cc3c(=O)n2Cc2ccccc2)C(=O)NN1 (stereo not given)	active
COC1=C(C(=O)OC(C)(C)C)[C@]2(C)C(C(=O)OC(C)(C)C)C(OC)=C(C(=O)OC(C)(C)C)[C@]2(C)C1C(=O)OC(C)(C)C (stereo not given in full)	inactive
CC(=O)C1C(=O)C(=O)N(c2ccc([N+](=O)[O-])cc2)C1=O (stereo not given)	inactive

Test call, this molecule: CCN(CC)CCNc1n[n+]([O-])c2ccccc2[n+]1[O-]
inactive

====

Tested on: NCI-H226
Assay: NCI tumour cell line growth inhibition, 48 h
Active and inactive are the calls of the source. Rule as the data show it: active = GI50 up to about 1.1 µM and inactive = higher. Non-standard residues stand in square brackets, D forms with d. Residues, ends and D or L forms follow the SMILES beside them. *: point of attachment. Ac5c = NC1(C(=O)O)CCCC1; Cbz = O=C(OCc1ccccc1)*; Boc = CC(C)(C)OC(=O)*; tBu = CC(C)(C)*
Pick one and only one: active, inactive

Below, 4 compounds whose answers are already recorded.
CC1=C2C(=CC(C)(CO)C2O)C(=O)C(C)(O)C12CC2 (centres undefined)	active
COC(=O)C1(NC(=O)C(Cc2ccccc2)NC(=O)C(NC(=O)C(CCCCNC(=O)OC(C)(C)C)NC(=O)C(Cc2c[nH]c3ccccc23)NC(=O)C(Cc2ccccc2)NC(=O)OCc2ccccc2)C(C)OC(C)(C)C)CCCC1 (centres undefined) (Cbz-FWK(Boc)T(tBu)F[Ac5c]-OMe; configuration not given here)	inactive
COC1=C(N)C(=O)c2nc(C)ccc2C1=O	active
C#CCOC(=O)C(N)CS (centres undefined)	inactive

Please state the recorded outcome for this compound: CCc1cccc(C)c1NC(=O)CC1C(=O)Nc2ccccc2S1(=O)=O (centres undefined)
inactive

Write down the call the test reported for this compound. Item: c1cc2c(s1)-c1sccc1C21OCCO1
inactive

Name the outcome recorded for Nc1ccc(Nc2nc(F)nc(-c3c4ccccc4c4n3CCS4)n2)cc1 in the assay.
inactive

Per the assay record, what outcome was assigned to COC(=O)[C@@H]1C[C@]2(Br)c3ccccc3N(S(=O)(=O)c3ccccc3)[C@@H]2N1C(=O)OC ?
inactive

Which outcome was entered for the compound COC(=O)C1C(C(=O)OC)N(Cc2ccccc2)C(=O)N1Cc1ccccc1 (centres undefined) in this test?
inactive

====

System: CCRF-CEM
Assay: NCI tumour cell line growth inhibition, 48 h
Activity calls are given as the source filed them. Rule as the data show it: active = GI50 up to about 1.1 µM and inactive = higher.
Assay readout: GI50

O=C(Cc1ccccc1)NS(=O)(=O)c1ccccc1	> 100 µM (inactive)
C=C1C(=O)O[C@@]23C1CC[C@@H](C)C2CC[C@@]1(C)OC31 (stereo not given in full)	3.42 µM (inactive)
CC(C)(C)c1ccc(C(C)(C)C)c(N2C(=O)[C@@H]3[C@@H]4C=C[C@@H](C4)[C@]3(C)C2=O)c1	7.38 µM (inactive)
COc1cc([C@@H]2Oc3cc4oc(-c5ccccc5)cc(=O)c4c(O)c3O[C@H]2OC)ccc1O	3.7 µM (inactive)
COc1cc2c(cc1OCCCC(=O)Nc1cc(C(=O)Nc3cc(C(=O)Nc4cc(C(=O)NCCCN(C)C)n(C)n4)n(C)c3)n(C)c1)N=CC1CCCN1C2=O (stereo not given)	4.31 µM (inactive)

Now consider the entry below.
// NC(=O)c1ccc[n+](C2=C([N-]S(=O)(=O)c3ccccc3)C(=O)c3ccccc3C2=O)c1 : GI50 value = 42.6 µM (inactive)

====

System: HCT-15
Assay: NCI tumour cell line growth inhibition, 48 h
Binarize GI50 at 20 µM; below is Satisfied, at or above is Not satisfied.

C=C1C(=O)O[C@H]2C1C[C@H](O)[C@@]1(C)OC1CC[C@@]1(C)O[C@H]21 (stereo partly specified)	Satisfied
CCOc1ccc(NC(=O)C(=O)CC(=O)c2c[n+]([O-])c3cc(C)c(C)cc3[n+]2[O-])cc1	Not satisfied
CC(C)c1ccc2nc3ccc(C(=O)NCCN4CCN(c5ccccc5)CC4)cn3c(=O)c2c1	Satisfied
CC1CC(C)(O)CC(C(O)CC2CC(=O)NC(=O)C2)C1=O (stereo unspecified)	Satisfied
NC(=O)c1cn(Cc2ccccc2)c(=O)n1Cc1ccccc1	Not satisfied
NC(=O)c1ccc(N)nc1 [6-AMINONICOTINAMIDE]	Satisfied
COc1cc(/C=C(\C#N)c2nc3ccccc3o2)ccc1O	Satisfied
OC(c1ccccc1Br)(c1ccccc1Br)C(F)(F)F	Not satisfied
CCOC(C)OCC#CCCBr (stereo unspecified)	Not satisfied

Below: the item to evaluate.
Hello, I'm reviewing records and need to know if GI50 of O=C1CC2(CCN(CC3COc4ccccc4O3)CC2)C(=O)N1N1CCCCCC1 (stereo unspecified) is below 20 µM. Could you check?
Not satisfied
